All values here come from ChEMBL document CHEMBL3137667.

- APPLIED_CONDITIONS: human;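 note: human clinical data: severe hepatitis, meaning potentially life-threatening liver failure or clinically observed cases, the value counts how many indexed literature references report it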

# COMPOUND, Hepatotoxicity (severe hepatitis)
measured = [
    ("CN(Cc1cc(Br)cc(Br)c1N)C1CCCCC1 [BROMHEXINE]", 0),
    ("CO[C@@H]1[C@H](OC(=O)/C=C/C=C/C=C/C=C/C(=O)O)CC[C@]2(CO2)[C@H]1[C@@]1(C)O[C@@H]1CC=C(C)C [FUMAGILLIN]", 0),
    ("CN1CCN2c3ncccc3Cc3ccccc3C2C1 (stereo unspecified) [MIRTAZAPINE]", 1),
    ("CC(C)[C@H](N)C(=O)OCC(CO)OCn1cnc2c(=O)nc(N)[nH]c21 (stereo partly specified) [VALGANCICLOVIR]", 0),
    ("CC(C)C[C@H](NC(=O)[C@@H](O)[C@H](N)Cc1ccccc1)C(=O)O [UBENIMEX]", 0),
    ("C1CCC(C(CC2CCCCN2)C2CCCCC2)CC1 (stereo unspecified) [PERHEXILINE]", 5),
    ("CCC(C)C(C)(COC(N)=O)COC(N)=O (stereo unspecified) [MEBUTAMATE]", 0),
    ("Cc1cccc(Nc2cc(Cl)nc(SCC(=O)NCCO)n2)c1C [PIRINIXIL]", 0),
    ("CO[C@H]1Cc2c(O)cc(O)cc2O[C@@H]1c1ccc(O)c(O)c1 [MECIADANOL]", 0),
    ("CNC=O", 2),
    ("COCc1c(C(=O)OC(C)C)ncc2[nH]c3ccc(OCc4ccccc4)cc3c12 [ABECARNIL]", 0),
    ("C[C@H]1C[C@@H]2[C@H]([C@@H](O)C[C@@]3(C)[C@H]2CC[C@]3(O)C(=O)CO)[C@@]2(C)C=CC(=O)C=C12 [METHYLPREDNISOLONE]", 0),
    ("O=P(O)(O)C(Sc1ccc(Cl)cc1)P(=O)(O)O [TILUDRONIC ACID]", 0),
    ("CCC[N+]12[C@H](O)[C@@H](CC)[C@@H]3C[C@H]1[C@@H]1N(C)c4ccccc4[C@]14C[C@H]2C3[C@H]4O (stereo partly specified)", 0),
    ("OC(CCCN1CCCCC1)(c1ccccc1)c1ccccc1 [DIPHENIDOL]", 0),
    ("Clc1ccc(C(c2ccccc2Cl)C(Cl)Cl)cc1 (stereo unspecified) [MITOTANE]", 0),
    ("CCN(CC)CCN1C(=O)CN=C(c2ccccc2F)c2cc(Cl)ccc21 [FLURAZEPAM]", 0),
    ("CCOC(=O)Nc1ccc(NCc2ccc(F)cc2)nc1N [FLUPIRTINE]", 0),
    ("CCOC(=O)[C@H](CCc1ccccc1)N[C@@H](C)C(=O)N1[C@H](C(=O)O)C[C@H]2CCCC[C@@H]21 [TRANDOLAPRIL]", 0),
    ("CCCc1nn(C)c2c(=O)[nH]c(-c3cc(S(=O)(=O)N4CCN(C)CC4)ccc3OCC)nc12", 0),
    ("CCc1[nH]c(=O)[nH]c1C(=O)c1ccncc1 [PIROXIMONE]", 0),
    ("OCCN1CCN(CC/C=C2/c3ccccc3Sc3ccc(Cl)cc32)CC1 [ZUCLOPENTHIXOL]", 0),
    ("O=c1[nH]c(=O)n([C@H]2C[C@H](O)[C@@H](CO)O2)cc1F [FLOXURIDINE]", 3),
    ("COc1cccc(OC)c1C(=O)N[C@@H]1C(=O)N2[C@@H]1SC(C)(C)[C@@H]2C(=O)O [METHICILLIN]", 0),
    ("COc1ccc2nc(NC(=O)Nc3ccccc3)sc2c1 [FRENTIZOLE]", 1),
    ("Cc1cc2c(s1)Nc1ccccc1N=C2N1CCN(C)CC1 [OLANZAPINE]", 0),
    ("COC(=O)Nc1nc2cc(C(=O)c3ccc(F)cc3)ccc2[nH]1 [FLUBENDAZOLE]", 0),
    ("CNC1=Nc2ccc(Cl)cc2C(c2ccccc2)=[N+]([O-])C1 [CHLORDIAZEPOXIDE]", 0),
    ("CN(CCCN1c2ccccc2CCc2ccccc21)CC(=O)c1ccc(Cl)cc1 [LOFEPRAMINE]", 1),
    ("CC(=O)[C@H]1CC[C@H]2[C@@H]3CC[C@@H]4C[C@H](O)CC[C@]4(C)[C@H]3CC[C@]12C [ELTANOLONE]", 0),
    ("CC1CCN(CCCC(=O)c2ccc(F)cc2)CC1 [MELPERONE]", 0),
    ("NC[C@@H]1CC[C@@H](N)[C@@H](O[C@H]2[C@H](O)[C@@H](O[C@H]3O[C@H](CO)[C@@H](O)[C@H](N)[C@H]3O)[C@H](N)C[C@@H]2N)O1 [DIBEKACIN]", 0),
    ("[H]/N=C(/N)N/C(=N/[H])NCCc1ccccc1 [PHENFORMIN]", 0),
    ("Cc1cc(CC(=O)O)n(C)c1C(=O)c1ccc(Cl)cc1 [ZOMEPIRAC]", 0),
    ("Clc1ccc2c(c1)C(N1CCNCC1)=Nc1ccccc1O2 [AMOXAPINE]", 0),
    ("CC(C)(C#N)c1cc(Cn2cncn2)cc(C(C)(C)C#N)c1 [ANASTROZOLE]", 0),
]
